Recorded inhibition for the following molecules
- System name: Serine/threonine-protein kinase Nek1 (Homo sapiens) (UniProt Q96PY6);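 note: mean percent inhibition of NEK1 kinase, from the GSK PKIS (published kinase inhibitor set) screening panel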
- Sequence (Q96PY6 whole entry): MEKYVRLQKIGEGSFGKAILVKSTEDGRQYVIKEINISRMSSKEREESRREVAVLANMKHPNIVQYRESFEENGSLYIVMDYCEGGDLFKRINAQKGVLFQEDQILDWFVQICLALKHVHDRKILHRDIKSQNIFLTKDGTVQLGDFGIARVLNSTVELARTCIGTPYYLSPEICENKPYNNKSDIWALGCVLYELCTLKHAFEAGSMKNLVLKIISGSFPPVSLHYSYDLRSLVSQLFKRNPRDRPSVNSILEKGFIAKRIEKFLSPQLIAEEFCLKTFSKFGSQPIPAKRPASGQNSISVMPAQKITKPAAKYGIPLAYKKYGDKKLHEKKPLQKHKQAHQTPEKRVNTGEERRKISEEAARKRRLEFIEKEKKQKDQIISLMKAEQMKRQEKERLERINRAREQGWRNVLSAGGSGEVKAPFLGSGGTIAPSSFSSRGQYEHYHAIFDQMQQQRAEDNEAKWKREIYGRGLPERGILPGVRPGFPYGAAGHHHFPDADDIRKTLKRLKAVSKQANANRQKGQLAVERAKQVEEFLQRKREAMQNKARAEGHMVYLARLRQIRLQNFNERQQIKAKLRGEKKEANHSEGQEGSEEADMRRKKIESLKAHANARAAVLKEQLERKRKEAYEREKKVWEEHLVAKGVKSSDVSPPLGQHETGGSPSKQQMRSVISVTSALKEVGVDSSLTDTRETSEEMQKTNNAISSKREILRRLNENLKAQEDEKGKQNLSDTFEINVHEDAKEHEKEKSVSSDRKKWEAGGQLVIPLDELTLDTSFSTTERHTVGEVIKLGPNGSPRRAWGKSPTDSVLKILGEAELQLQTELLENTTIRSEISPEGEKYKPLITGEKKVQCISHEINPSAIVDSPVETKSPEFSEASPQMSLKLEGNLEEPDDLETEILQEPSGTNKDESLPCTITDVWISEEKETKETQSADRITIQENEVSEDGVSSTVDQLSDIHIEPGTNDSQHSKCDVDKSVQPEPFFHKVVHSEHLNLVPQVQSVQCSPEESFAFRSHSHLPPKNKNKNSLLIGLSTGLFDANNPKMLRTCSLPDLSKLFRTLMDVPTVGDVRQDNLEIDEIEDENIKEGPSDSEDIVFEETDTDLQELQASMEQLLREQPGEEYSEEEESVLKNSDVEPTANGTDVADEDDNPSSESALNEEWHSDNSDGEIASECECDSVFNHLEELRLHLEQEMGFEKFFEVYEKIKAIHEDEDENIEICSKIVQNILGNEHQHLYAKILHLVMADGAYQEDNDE
- Assay context: at 0.1 µM
Readout name: inhibition (%)

>>> value_measured("Nc1ncnc2occ(-c3ccc(NC(=O)Nc4cc(C(F)(F)F)cc(C(F)(F)F)c4)cc3)c12")
1.24
>>> value_measured("O=C1NC(=O)C(c2ccccc2Cl)=C1Nc1cccc(O)c1")
1.26
>>> value_measured("Nc1nc(-c2ccc3c(c2)C(=Cc2cc(Br)c(O)c(Br)c2)C(=O)N3)cs1")
-0.4
>>> value_measured("CC1=C(C(=O)Nc2ccc3[nH]ncc3c2)C(c2ccc(F)cc2)NC(=O)N1 (stereo not given)")
2.09
>>> value_measured("Cc1cccc(-c2n[nH]cc2-c2ccc3ncccc3n2)n1")
2.07

----------
Recorded inhibition for the following molecules
- System name: Ephrin type-A receptor 3 (Homo sapiens);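 note: values are mean inhibition of EPHA3, from the GSK PKIS dataset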
- Assay context: at 0.1 µM
Readout name: inhibition (%)

>>> value_measured("Nc1nc(-c2ccc3c(c2)C(=Cc2cc(Br)c(O)c(Br)c2)C(=O)N3)cs1")
-6.05
>>> value_measured("O=C(Nc1n[nH]c2nc(-c3ccco3)c(Br)cc12)C1CC1")
6.55
>>> value_measured("Cc1ccc(NC(=O)c2ccnc(N3CCCC3)c2)cc1-c1ccc(C(=O)NCC2CC2)cc1")
-0.85
>>> value_measured("N#Cc1c(NC(=O)c2cccc3ccccc23)sc2c1CCCC2")
2.05
>>> value_measured("CC1=C(C(=O)Nc2ccc3[nH]ncc3c2)C(c2ccc3ccccc3c2)CC(=O)N1 (configuration not stated)")
3.77
>>> value_measured("CNC(=O)c1cncc(/C=C/c2c(Cl)cccc2Cl)c1")
-0.5
>>> value_measured("COC(=O)Nc1nc2cc(Oc3ccc(NC(=O)Nc4cccc(C(=O)O)c4)cc3)ccc2[nH]1")
-2.34
>>> value_measured("COc1ccc(-c2coc3ncnc(N)c23)cc1")
2.58
>>> value_measured("CCN1CCC(CC(=O)Nc2n[nH]c3nc(-c4cccs4)c(Br)cc23)CC1")
-7.71
>>> value_measured("CCn1c(-c2nonc2N)nc2cnc(Oc3cccc(NC(=O)c4ccc(OCCN5CCOCC5)cc4)c3)cc21")
3.26
>>> value_measured("CC(C)=Cc1cccc2c1/C(=N/Nc1ccc(S(N)(=O)=O)cc1)C(=O)N2")
2.78
>>> value_measured("O=C1NC(=O)C(c2ccc(Cl)cc2)=C1Nc1ccc(Cl)c(C(=O)O)c1")
-3.17
>>> value_measured("COc1ccc(-c2ccncc2)cc1C(N)=O")
2.75
>>> value_measured("Cc1nnc(-c2ccc(C)c(-c3ccc(C(=O)Nc4cccc(C#N)c4)cc3)c2)o1")
4.6
>>> value_measured("COc1cc2ncn(-c3cc(O[C@@H](C)c4ccccc4Cl)c(C(N)=O)s3)c2cc1OC")
1.7
>>> value_measured("Fc1cccc(COc2ccc(Nc3ncnc4sc(-c5cccs5)cc34)cc2Cl)c1")
-3.5
>>> value_measured("COc1ccc2cc(-c3c(-c4ccncc4)nc(-c4ccc([S+](C)[O-])cc4)n3C)ccc2c1 (configuration not stated)")
3.89

----------
- System name: Hepatocyte growth factor receptor (Homo sapiens) (UniProt P08581);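 note: each value is an averaged inhibition figure for MET, taken as the mean across measurements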
- Sequence (P08581 whole entry): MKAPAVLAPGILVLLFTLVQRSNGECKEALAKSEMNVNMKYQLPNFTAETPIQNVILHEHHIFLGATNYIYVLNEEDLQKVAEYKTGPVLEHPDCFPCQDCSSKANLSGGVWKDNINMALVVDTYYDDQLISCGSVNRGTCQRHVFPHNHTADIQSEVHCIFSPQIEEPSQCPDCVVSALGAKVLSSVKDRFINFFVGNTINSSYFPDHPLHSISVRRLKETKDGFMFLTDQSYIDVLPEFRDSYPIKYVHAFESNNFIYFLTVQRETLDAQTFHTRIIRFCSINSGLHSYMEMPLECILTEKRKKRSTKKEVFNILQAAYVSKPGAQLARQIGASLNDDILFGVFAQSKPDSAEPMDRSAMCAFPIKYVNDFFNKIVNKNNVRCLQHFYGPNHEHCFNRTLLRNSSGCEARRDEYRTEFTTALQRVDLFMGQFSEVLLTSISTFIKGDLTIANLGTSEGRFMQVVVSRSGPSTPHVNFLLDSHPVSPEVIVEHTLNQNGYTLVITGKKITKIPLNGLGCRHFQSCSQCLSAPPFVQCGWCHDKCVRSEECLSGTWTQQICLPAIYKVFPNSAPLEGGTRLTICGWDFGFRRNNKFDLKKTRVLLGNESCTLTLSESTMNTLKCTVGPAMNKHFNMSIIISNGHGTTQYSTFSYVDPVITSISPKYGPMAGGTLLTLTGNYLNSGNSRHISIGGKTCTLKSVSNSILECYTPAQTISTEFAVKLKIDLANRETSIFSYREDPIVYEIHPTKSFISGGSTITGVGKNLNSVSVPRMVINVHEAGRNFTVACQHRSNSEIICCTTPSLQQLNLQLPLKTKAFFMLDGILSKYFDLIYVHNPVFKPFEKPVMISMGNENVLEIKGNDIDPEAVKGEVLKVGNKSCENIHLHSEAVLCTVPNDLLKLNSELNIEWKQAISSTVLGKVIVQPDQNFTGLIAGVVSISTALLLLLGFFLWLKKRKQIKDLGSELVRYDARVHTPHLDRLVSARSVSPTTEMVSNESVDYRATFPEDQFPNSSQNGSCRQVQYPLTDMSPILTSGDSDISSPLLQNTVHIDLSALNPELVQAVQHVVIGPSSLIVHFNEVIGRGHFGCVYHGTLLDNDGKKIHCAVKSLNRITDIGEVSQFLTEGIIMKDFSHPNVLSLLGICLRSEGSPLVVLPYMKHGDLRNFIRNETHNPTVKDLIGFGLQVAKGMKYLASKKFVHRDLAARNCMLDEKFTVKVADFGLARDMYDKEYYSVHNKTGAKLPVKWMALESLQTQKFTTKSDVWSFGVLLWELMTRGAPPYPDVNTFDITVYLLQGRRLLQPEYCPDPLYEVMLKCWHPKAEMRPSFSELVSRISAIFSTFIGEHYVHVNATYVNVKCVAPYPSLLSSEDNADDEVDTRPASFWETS
- Assay context: at 1 µM
Readout name: inhibition (%)

>>> value_measured("COc1ccccc1Nc1ncc(-c2ccccc2)o1")
1.27
>>> value_measured("COc1cc2ncn(-c3cc(O[C@H](C)c4ccccc4Cl)c(C(N)=O)s3)c2cc1OC")
17
>>> value_measured("COc1cc2ncn(-c3cc(O[C@@H](C)c4ccccc4Cl)c(C(N)=O)s3)c2cc1OC")
3.23
>>> value_measured("COc1cc(C=NNc2ncnc3c2cnn3-c2ccccc2)ccc1O")
88.6
>>> value_measured("Nc1ncnc2occ(-c3ccc(NC(=O)Nc4cc(C(F)(F)F)cc(C(F)(F)F)c4)cc3)c12")
10.3
>>> value_measured("Cc1cccc(-c2n[nH]cc2-c2ccc3ncccc3n2)n1")
-1.62
